All figures here come from patent US20130317027A1.

Test system: cancer cell lines
experiment: Cytotoxicity in a wide variety of cancer cell types (TC50, CellTiter-Glo, 72 or 96 hours)
test-context: read-out: TC50; HT29 cells, colon; 3 DAY
measured-metric: CC50 (nM)
Give bare numbers, in nM.

Problem: What value of measured CC50 is listed for O=C(NCc1cccnc1)Nc1ccc(COc2ccccc2-c2ccccc2)cc1 [Exemplary Compound A] ?
Result: 1.4

----------
experiment: Cytotoxicity Assay (CellTiter-Glo, 72 hour drug incubation)
test-context: human, HCT116 cells
Give measured IC50 at 72 h for each item. Keep answers brief.

Record excerpt, results attached:
| molecule | IC50 at 72 h |
| --- | --- |
| O=C(NCc1cccnc1)Nc1ccc(COc2cc(C(F)(F)F)ccc2Cl)cc1 | ~74 nM |
| O=C(NCc1cccnc1)Nc1ccc(C[S+]([O-])c2ccccc2-c2ccccc2)cc1 (centres unmarked) | ~39 nM |
| N#C/N=C(\NCCOc1ccccc1-c1ccccc1)Nc1cccnc1 | ~3200 nM |
| C[C@H](Oc1ccccc1-c1ccccc1)c1nc(CNC(=O)NCc2cccnc2)cs1 | ~290 nM |

Switching to the query record.
Problem: Query: IC50 at 72 h; subject: N#C/N=C(/NCC(=O)NCCOc1ccccc1-c1ccccc1)Nc1ccncc1
Result: ~5000 nM
